Every entry's value here was drawn from patent US20070299103A1.

- measurementTarget: human MEK1 (Homo sapiens, UniProt Q02750)
- Sequence (Q02750 whole entry): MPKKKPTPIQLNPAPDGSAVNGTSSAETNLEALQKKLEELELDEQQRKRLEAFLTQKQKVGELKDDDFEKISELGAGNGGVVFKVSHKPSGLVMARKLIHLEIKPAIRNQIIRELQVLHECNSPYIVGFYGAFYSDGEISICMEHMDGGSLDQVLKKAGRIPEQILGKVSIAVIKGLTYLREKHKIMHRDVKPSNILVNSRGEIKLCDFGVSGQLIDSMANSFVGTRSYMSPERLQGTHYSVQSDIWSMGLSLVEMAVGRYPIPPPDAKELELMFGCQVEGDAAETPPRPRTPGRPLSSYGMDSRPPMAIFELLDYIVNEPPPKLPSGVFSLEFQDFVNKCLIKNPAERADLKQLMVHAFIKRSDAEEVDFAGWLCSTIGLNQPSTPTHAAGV
pIC50: −log10 of the molar value.
experimentalEndpoint: pIC50

Record summary for Cc1cc(Br)ccc1Nc1cc2nnc(C)n2cc1C(=O)O : reported pIC50 = 5.00 to 6.00

====

- experimentNotes: Microsomal stability assay, human liver microsomes
- Type: in vitro ADME
- testParameters: pooled human liver microsomes, pH 7.4; 3 μM compound, 0.5 mg/ml human liver microsomes, 37° C., 2 mM NADPH; read-out: HLM t½
experimentalEndpoint: half-life at 3 μM

Notebook: Cc1cc(Br)ccc1Nc1cc2nnc(C)n2cc1C(=O)NOC[C@@H](O)CO , half-life at 3 μM read as > 2 h
